Tested on: HCC-2998 colon
experimental_details: NCI tumour cell line growth inhibition, 48 h; in the data active = GI50 below about 0.43 µM; inactive = the rest
Classes used: active, inactive

{"compound": "COc1cc(C2CC(c3ccc4c(c3)OCO4)=NN2C(C)=O)cc(OC)c1OC (stereo not given)", "classification": "inactive"}
{"compound": "BrC(Br)(Br)c1cnc2ccccc2n1", "classification": "inactive"}
{"compound": "COc1ccc(OC)c(-c2cc(-c3ccccc3)nn2-c2ccc(S(N)(=O)=O)cc2)c1", "classification": "inactive"}
{"compound": "O=C(O)c1ccc(-c2ccc(C(=O)O)cc2I)c(I)c1", "classification": "inactive"}
{"compound": "NC(N)=N/N=C/c1cccc(Cl)c1Cl", "classification": "inactive"}
{"compound": "CCn1c(-c2nonc2N)nc2c(C#CC(C)(C)O)nc(O[C@@H](CN)c3ccccc3)cc21", "classification": "active"}
{"compound": "COc1ccccc1CNC(=O)C1c2ccccc2C(=O)N(CC(C)C)C1c1cccs1 (stereo not given)", "classification": "inactive"}
{"compound": "COC(=O)[C@@H](Cc1c[nH]c2ccccc12)NC(=O)/C=C/c1ccccc1", "classification": "inactive"}
{"compound": "CCOC(=O)CNC(=O)CCCn1c(=O)c2c3ccccc3n(C)c2n2nnc(-c3ccccc3)c12", "classification": "inactive"}
{"compound": "C[C@H]1CCC/C=C/[C@@H]2C[C@H](O)C[C@H]2[C@H](O)[C@@H](S(=O)CCN)CC(=O)O1 (stereo not given in full)", "classification": "active"}
